Values from ChEMBL document CHEMBL3301472

run description: MMV: MTT Cytotoxicity Assay Day 7 pi of Assay #11 (NO washout), U87-CD4-CXCR4 cells, % cell death @ 5mM compound
Assay type: toxicity, cell-based
test parameters: human, u87-cd4-cxcr4, 5000 µM
experimental readout: % Cell Death
The response must contain the number and no unit.

Please give measured % Cell Death of the following entry: CCCCC(O)(c1ccc(Cl)cc1)C(CN1CCOCC1)c1ccc(Cl)cc1.Cl (configuration not stated)
41

State, in one line, measured % Cell Death of CNCCCNc1ccnc2cc(Cl)ccc12
100

Report % Cell Death for O=C(Nc1cccc(C2=NCCN2)c1)Nc1cccc(C2=NCCN2)c1
65

Read the entry Cc1cc(C)cc(Nc2cc(C)nc3nc(C(F)(F)F)nn23)c1 and write its reported % Cell Death.
-5

Please report the measured % Cell Death for c1ccc(/C2=N/c3ccccc3/N=C(/c3ccccc3)c3ccccc32)cc1
7

Identify the reported % Cell Death for the following entry. OC(Cn1nnc2ccccc21)Cn1c2ccc(Br)cc2c2cc(Br)ccc21 (configuration not stated)
18

Report % Cell Death, nothing else, for this compound: O=C1c2ccccc2-c2nnc(-c3ccc(Br)cc3)cc21
-24

Retrieve % Cell Death measured for Fc1ccc2[nH]c3c(NCCCN4CCOCC4)ncnc3c2c1 and print it.
49

Determine its reported % Cell Death: COc1ccc(C(O)(CCC(C)C)C(CN2CCOCC2)c2ccc(Cl)cc2)cc1.Cl (configuration not stated)
47

Write down % Cell Death measured for item O=C(Cc1ccccc1)NC(c1ccc(Cl)cc1)c1c(O)ccc2ccccc12 (configuration not stated)
-16

Give the value of % Cell Death reported for the following: O=C(NCc1ccco1)C1CCN(S(=O)(=O)c2ccc(Br)cc2)CC1
-5

Give a short answer stating reported % Cell Death for C=C(C)CCC(C)N1CCC(N2CCC(C(=O)NCCc3ccccc3)CC2)CC1 (configuration not stated) .
-11

In one line, give reported % Cell Death of the entry CCOc1cc(CNC(C)C(O)c2ccccc2)cc(Cl)c1OCC (configuration not stated) .
73

Identify the reported % Cell Death for the following entry. CCCCCCC(O)(c1ccc(F)cc1)C(CN1CCOCC1)c1ccccc1.Cl (configuration not stated)
-35

Respond only with % Cell Death recorded for COc1ccc(NC(=O)C2c3ccccc3C(=O)N(CC(C)C)C2c2cccs2)cc1 (configuration not stated)
-27

Supply reported % Cell Death belonging to this compound: COc1ccc2nc(C)cc(Nc3cccc(O)c3)c2c1.Cl
76

Give % Cell Death for COc1cc2cc(C(=O)Nc3ccccc3)c(N)nc2cc1OC
106

Tell me % Cell Death reported for O=C(O)C(=O)O.Oc1ccccc1CN1CCN(C(c2ccccc2)c2ccccc2)CC1
56

Report % Cell Death for CCN1CCN(c2cc(C)c3cc(NC(=O)c4ccc(OC)c(OC)c4)ccc3n2)CC1
55

Return % Cell Death (reported value) for this compound: CC(C)(C)C(=O)Nc1ccc(C(=O)Nc2cccc(-c3nc4ccccc4[nH]3)c2)cc1
85

Return % Cell Death for the following compound: COc1cccc(Nc2nc(NCCO)c3ccccc3n2)c1.Cl
46

Return value of % Cell Death for input CCOc1ccccc1CN1CCc2nc3cc(C(C)(C)C)nn3c(O)c2C1 , no commentary.
98

Please report % Cell Death for the following compound: CCN(CC)c1ccc(NC(=O)c2cccs2)cc1
102

Name the recorded % Cell Death of the item O=C(NC1CCN(Cc2ccccc2)CC1)c1cc(-c2cccnc2)nc2ccc(Cl)cc12 in your answer.
40

Specify reported % Cell Death for the compound shown: O=C(NNc1cc(N2CCCC2)nc(N2CCCC2)n1)c1ccccc1
8

Find the measured % Cell Death of COc1ccc(-c2nonc2NC(=O)c2cccc(C)c2)cc1OC and report it.
-3

Name the recorded % Cell Death of the item CCOC(=O)c1cn(CC)c2cc(N3CCCCC3)c(F)cc2c1=O in your answer.
103

Using known records, supply % Cell Death for CSC1=NC(=Nc2c(C)cccc2C)C2(CCC(C(C)(C)C)CC2)N1c1ccc(Cl)cc1 (configuration not stated)
0

Give the reported % Cell Death for this compound. COc1cc2c(cc1OC)C1=NNC(=O)C1=NC(C)(C)C2
98

Consider the compound COc1cccc(C(=O)NC(c2ccc(C)cc2)c2cc(Cl)c3cccnc3c2O)c1 (configuration not stated) and give its recorded % Cell Death.
-24

Give a short answer stating reported % Cell Death for CCOc1cc2c(cc1OCC)C(c1cc(C)c(O)c(C)c1)NCC2.Cl (configuration not stated) .
-11

Please look at this compound and report its % Cell Death: Cc1ccc(-c2cc3c(SCC(=O)Nc4cc(C(F)(F)F)ccc4Cl)nccn3n2)cc1
2
